# target-entity: T1, glucose-dependent insulinotropic peptide (gastric inhibitory polypeptide) receptor (GIPR) (human, UniProt P48546 22-466)
# T1 sequence (looked up): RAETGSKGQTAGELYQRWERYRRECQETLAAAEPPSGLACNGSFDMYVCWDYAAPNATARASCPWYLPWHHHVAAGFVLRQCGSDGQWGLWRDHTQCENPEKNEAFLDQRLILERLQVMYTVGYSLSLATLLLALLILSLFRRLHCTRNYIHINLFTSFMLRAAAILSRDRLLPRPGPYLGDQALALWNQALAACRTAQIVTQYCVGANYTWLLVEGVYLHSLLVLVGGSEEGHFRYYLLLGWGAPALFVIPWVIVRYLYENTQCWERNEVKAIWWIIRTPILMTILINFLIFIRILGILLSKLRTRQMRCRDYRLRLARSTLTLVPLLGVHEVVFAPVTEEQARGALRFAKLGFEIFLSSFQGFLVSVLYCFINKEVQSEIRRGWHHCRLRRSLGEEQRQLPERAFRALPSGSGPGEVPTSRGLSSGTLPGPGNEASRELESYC
# assay-notes: cell-based or functional assay
Starred links: 1 amine or outer side, 2 acyl side, 3 side chain; linkers in the order of their positions; H or OH if unused. Non-standard residues stand in square brackets, D forms with d. Groups on a side chain read outwards from the residue. Primed or numbered codes have the meaning given here. No end group written: not given here. *: point of attachment. Dodecanoyl(12-OPh(4-COOH)) = O=C(O)c1ccc(OCCCCCCCCCCCC(=O)*)cc1; γGlu = O=C(O)[C@H](CCC(=O)[*:2])N[*:1]; Stearoyl = CCCCCCCCCCCCCCCCCC(=O)*; Palmitoyl = CCCCCCCCCCCCCCCC(=O)*; αMeF = C[C@](N)(Cc1ccccc1)C(=O)O; αMeK = C[C@](N)(CCCCN)C(=O)O; αMeS = C[C@](N)(CO)C(=O)O; PEG2′ = not defined here; Aib = CC(C)(N)C(=O)O
parameter: cAMP Primary assay EC50 GIP-R
Number first, unit second: that is the form wanted.

Can you look up the measured cAMP Primary assay EC50 GIP-R of HK([PEG2′-PEG2′-γGlu-Stearoyl])EGS[αMeF]TSDV[αMeS]S[αMeF]LEGEAA[αMeK]E[αMeF]IA[αMeF]VV[αMeK]GG-NH2 [SEQ ID NO 127] for me?
0.025 µM

Can you look up the measured cAMP Primary assay EC50 GIP-R of HK([γGlu-Palmitoyl])EGS[αMeF]TSDV[αMeS]S[αMeF]LEGEAA[αMeK]E[αMeF]IA[αMeF]VV[αMeK]GG-NH2 [SEQ ID NO 98] for me?
0.028 µM

Can you look up the measured cAMP Primary assay EC50 GIP-R of H[Aib]EGS[αMeF]TSDV[αMeS]S[αMeF]LEGEAAK([PEG2′-PEG2′-PEG2′-Dodecanoyl(12-OPh(4-COOH))])E[αMeF]IA[αMeF]VV[αMeK]GG-NH2 [SEQ ID NO 145] for me?
0.025 µM

Can you look up the measured cAMP Primary assay EC50 GIP-R of H[Aib]EGS[αMeF]TSDV[αMeS]SK([PEG2′-PEG2′-γGlu-Stearoyl])LEGEAA[αMeK]E[αMeF]IA[αMeF]VV[αMeK]GG-NH2 [SEQ ID NO 116] for me?
0.026 µM

Can you look up the measured cAMP Primary assay EC50 GIP-R of H[Aib]EGS[αMeF]TSDV[αMeS]S[αMeF]LEGEAA[αMeK]E[αMeF]IAK([PEG2′-PEG2′-γGlu-Stearoyl])VV[αMeK]GG-NH2 [SEQ ID NO 104] for me?
0.026 µM

Can you look up the measured cAMP Primary assay EC50 GIP-R of HXEGSFTSDVSKFLEGEAAKEFIAFVVKGG (Aib 2; α-MeF 6, 13, 22, 25; α-MeS 11; α-MeK 20, 28; K(ε-γE-Palmitoyl) 12; C-terminal amide) [SEQ ID NO 88] for me?
0.028 µM
